meta.source: PubChem BioAssay

experiment: ovarian cancer cell viability with rucaparib, profiling panel, oncology-focused library, rucaparib conditional (AID 1508598); settings: patient-derived ovarian cancer cells, CellTiter-Glo viability, 144 h; at 0.000305 µM; OCI-C5x cells; without rucaparib
The source made the active and inactive calls.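 The calls were made as follows: active = normalized viability below 100% at a tested concentration; inactive = the rest.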
Outcomes: True for active, False for inactive

• Cc1c(N)nc([C@H](CC(N)=O)NC[C@@H](N)C(N)=O)nc1C(=O)N[C@H](C(=O)N[C@@H](C)[C@H](O)[C@@H](C)C(=O)N[C@@H](C(=O)NCCc1nc(-c2nc(C(=O)NCCC[S+](C)C)cs2)cs1)[C@@H](C)O)C(O[C@H]1O[C@H](CO)[C@H](O)[C@@H](O)[C@H]1O[C@H]1O[C@H](CO)[C@@H](O)[C@H](OC(N)=O)[C@@H]1O)c1cnc[nH]1 (some centres undefined) = False
• CC(C)[C@@]12O[C@@H]1[C@@H]1O[C@]13[C@]1(O[C@@H]1C[C@@H]1C4=C(CC[C@@]13C)C(=O)OC4)[C@@H]2O = True
• C/C(=C\c1csc(C)n1)[C@H]1C[C@@H]2O[C@@H]2CCC[C@H](C)[C@H](O)[C@@H](C)C(=O)C(C)(C)[C@H](O)CC(=O)O1 = True
• Cn1cc(C2=C(c3cn(C4CCN(Cc5ccccn5)CC4)c4ccccc34)C(=O)NC2=O)c2ccccc21 = False

---

assay: growth inhibition of DIPG glioma cells, dose response, cell-based, SU-DIPG-XVII, MIPE5.0, CellTiter-Glo, qHTS (AID 1347060); details: SU-DIPG-XVII viability, CellTiter-Glo ATP luminescence;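 as to AC50: cells exposed to compound for 48 hours before viability readout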
Records with an inconclusive call do not appear. Active and inactive are the calls of the source. No cut-off is given here; in the data, nearly all actives have AC50 up to about 26 µM.
Outcomes: y = active, n = inactive

- COc1cc2c(cc1F)C(c1ccccc1Cl)=Nc1c(n[nH]c1C)N2: y
- CC(C)c1cccc(C(C)C)c1O: n
- Clc1ccccc1C(c1ccccc1)(c1ccccc1)n1cccn1: y
- CCN1C[C@]2(OC(=O)c3ccccc3NC(C)=O)CC[C@H](OC)[C@@]34[C@@H]2C[C@@H]([C@@H]13)[C@@]1(O)C[C@H](OC)[C@H]2C[C@@H]4[C@]1(O)[C@H]2OC: n
- Cc1[nH]ncc1-c1cc2nc([C@@H]3CC4CCN3CC4)[nH]c(=O)c2s1: y
- COc1ccc(N(C(=O)Oc2c(C)cccc2C)c2ccnc(Nc3ccc(N4CCN(C)CC4)cc3)n2)c(OC)c1: y
- COCC1(CO)C(=O)C2CCN1CC2 (configuration not stated): y
- COc1cc(C)[nH]c(=O)c1CNC(=O)c1c(C)n([C@H](C)C2CCOCC2)c2ccccc12: n
- CC[C@@H](C(N)=O)N1CCCC1=O: n
- C[C@]12Cc3cn[nH]c3C[C@@H]1CC[C@@H]1[C@@H]2CC[C@@]2(C)[C@H]1CC[C@]2(C)O: n
- C[C@H]1[C@H](O)[C@@H](C)/C=C/C=C/CC/C=C/C=C/C=C/C=C/[C@H](O[C@@H]2O[C@H](C)[C@@H](O)[C@H](N)[C@@H]2O)C[C@@H]2O[C@](O)(C[C@@H](O)[C@H](O)CC[C@@H](O)C[C@@H](O)C[C@@H](O)CC(=O)O[C@H]1C)C[C@H](O)[C@H]2C(=O)O: n
- CC(C)(C)c1cc(C=C(C#N)C#N)cc(Br)c1O: y
- O=C(O)CNC(=O)C1C(=O)N(C2CCCCC2)C(=O)N(C2CCCCC2)C1=O: y
- Cn1c(COP(=O)(NCCBr)NCCBr)cnc1[N+](=O)[O-]: y
- CN[C@@H]1Cc2cccc3[nH]c(=O)n(c23)C1: n
- CC(=O)O[C@@]12CO[C@@H]1C[C@H](O)[C@@]1(C)C(=O)[C@H](O)C3=C(C)[C@@H](O)C[C@@](O)([C@@H](OC(=O)c4ccccc4)[C@H]21)C3(C)C: y
- C/C1=C/C[C@@H](/C(C)=C/c2csc(C)n2)OC(=O)C[C@H](O)C(C)(C)C(=O)[C@H](C)[C@@H](O)[C@@H](C)CCC1: y
